- Target or test system: κ-opioid receptor (Homo sapiens)
- Sequence (P41145 whole entry): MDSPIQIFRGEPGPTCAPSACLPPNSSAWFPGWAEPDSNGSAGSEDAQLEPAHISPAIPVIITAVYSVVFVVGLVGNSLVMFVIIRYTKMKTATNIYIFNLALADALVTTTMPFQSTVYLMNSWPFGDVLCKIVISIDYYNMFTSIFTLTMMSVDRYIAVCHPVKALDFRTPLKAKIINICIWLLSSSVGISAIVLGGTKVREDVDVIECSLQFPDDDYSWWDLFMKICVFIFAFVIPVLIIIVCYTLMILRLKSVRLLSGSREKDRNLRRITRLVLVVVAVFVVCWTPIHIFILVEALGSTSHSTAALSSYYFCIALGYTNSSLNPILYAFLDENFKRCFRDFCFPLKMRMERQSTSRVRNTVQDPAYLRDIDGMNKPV
- Test name: κ-opioid receptor radioligand binding assay ([3H]-U69,593)
- Parameters: expressed in transfected cells; host or cells: HEK-293
Assay metric: Ki (nM)
Return type: number; implicit unit nM.

Prompt: What Ki value was documented for this compound, C[C@H]1[C@H]2Cc3ccc(O)cc3[C@]1(CCO)CCN2C ?
Response: 22.4

Prompt: What Ki value was documented for this compound, COc1ccc2c(c1)[C@]1(CCO)CCN(CC3CC3)[C@H](C2)[C@@H]1C ?
Response: 3.63

Prompt: What Ki value was documented for this compound, COc1ccc2c(c1)[C@@]1(CCO)CCN(CC3CC3)[C@@H](C2)[C@H]1C ?
Response: 3580
